Target: Fatty-acid amide hydrolase 1 (Homo sapiens)
Sequence (O00519 whole entry): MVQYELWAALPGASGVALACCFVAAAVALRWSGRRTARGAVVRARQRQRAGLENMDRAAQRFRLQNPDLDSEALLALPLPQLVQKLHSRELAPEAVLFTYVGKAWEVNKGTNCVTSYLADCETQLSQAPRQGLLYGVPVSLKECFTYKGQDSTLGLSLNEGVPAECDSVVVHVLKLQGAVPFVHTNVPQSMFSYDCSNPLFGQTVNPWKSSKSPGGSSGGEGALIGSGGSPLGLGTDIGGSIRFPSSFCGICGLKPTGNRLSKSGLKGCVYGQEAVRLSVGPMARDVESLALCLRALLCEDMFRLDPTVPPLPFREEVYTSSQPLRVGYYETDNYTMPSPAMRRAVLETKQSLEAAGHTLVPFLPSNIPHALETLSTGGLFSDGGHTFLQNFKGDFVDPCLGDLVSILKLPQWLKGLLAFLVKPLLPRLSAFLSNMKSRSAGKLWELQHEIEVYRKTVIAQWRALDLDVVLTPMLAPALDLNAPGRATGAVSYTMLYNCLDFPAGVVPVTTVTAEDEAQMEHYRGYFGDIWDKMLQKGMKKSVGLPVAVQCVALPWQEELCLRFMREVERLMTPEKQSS
Result Type: pIC50
Please note pIC50 is a logarithmic value: minus log10 of concentration in mol/L. Answer with that number alone.

Solved entries (count: 3):
CCOC(=O)Cn1nc2c(c1C(C)C)C(c1ccc(Cl)cc1C)N(c1cc(Cl)ccc1C)C2=O (centres undefined) :: 8.66
O=C(NC1CCC(=Cc2cccc(Oc3ccc(C(F)(F)F)cn3)c2)CC1)c1cnc2[nH]ccc2c1 (centres undefined) :: 8.66
O=C(NC1CCC(=Cc2cccc(Oc3ccc(C(F)(F)F)cn3)c2)CC1)c1cn[nH]c1 (centres undefined) :: 8.59

The record that follows has no pIC50 shown yet.
Ask: Recorded pIC50 for O=C(NC1CCC(=Cc2cccc(Oc3ccc(C(F)(F)F)cn3)c2)CC1)c1cncnc1 (centres undefined) , please?
Result: 8.59

Taken from BindingDB's records for doi:10.1016/j.bmcl.2018.11.048.
